Source of measurements: ChEMBL document CHEMBL2401651

# METHOD_SUMMARY: Permeability of the compound in human Caco2 cells
# Type: ADME, cell-based
# TEST_SETTINGS: Caco-2, read-out: permeability
MEASURED_ENDPOINT: Papp (×10⁻⁶ cm/s)

Worked cases, Papp given:
C=C[C@@H]1C[C@]1(NC(=O)[C@@H]1C[C@@H](c2csc(-c3cc(OC)ccc3OC)n2)CN1C(=O)[C@@H](NC(=O)OC1CCCC1)C(C)(C)C)C(=O)NS(=O)(=O)C1(C)CC1 : 12
C=C[C@@H]1C[C@]1(NC(=O)[C@@H]1C[C@@H](n2cnc(-c3ccccc3)c2)CN1C(=O)[C@@H](NC(=O)OC1CCCC1)C(C)(C)C)C(=O)NS(=O)(=O)C1CC1 : 0.2
C=C[C@@H]1C[C@]1(NC(=O)[C@@H]1C[C@@H](c2csc(-c3cc(OC)ccc3OC)n2)CN1C(=O)[C@@H](NC(=O)OC1CCCC1)C(C)(C)C)C(=O)NS(=O)(=O)C1CC1 : 7
C=C[C@@H]1C[C@]1(NC(=O)[C@@H]1C[C@@H](n2cc(-c3ccccc3)nn2)CN1C(=O)[C@@H](NC(=O)OC1CCCC1)C(C)(C)C)C(=O)NS(=O)(=O)C1CC1 : 1.1

1: C=C[C@@H]1C[C@]1(NC(=O)[C@@H]1C[C@@H](c2nc(-c3ccccc3)cs2)CN1C(=O)[C@@H](NC(=O)OC1CCCC1)C(C)(C)C)C(=O)NS(=O)(=O)C1CC1
2: C=C[C@@H]1C[C@]1(NC(=O)[C@@H]1C[C@@H](n2cc(-c3ccccc3)c(C)n2)CN1C(=O)[C@@H](NC(=O)OC1CCCC1)C(C)(C)C)C(=O)NS(=O)(=O)C1CC1
Which gives the smaller Papp number: 1 or 2 ? Kindly give the label for the entry you pick.
2
